molecular target: Muscarinic acetylcholine receptor M2 (Homo sapiens, UniProt P08172); type: functional, cell-based; further: assay procedure not described here
Sequence (P08172 whole entry): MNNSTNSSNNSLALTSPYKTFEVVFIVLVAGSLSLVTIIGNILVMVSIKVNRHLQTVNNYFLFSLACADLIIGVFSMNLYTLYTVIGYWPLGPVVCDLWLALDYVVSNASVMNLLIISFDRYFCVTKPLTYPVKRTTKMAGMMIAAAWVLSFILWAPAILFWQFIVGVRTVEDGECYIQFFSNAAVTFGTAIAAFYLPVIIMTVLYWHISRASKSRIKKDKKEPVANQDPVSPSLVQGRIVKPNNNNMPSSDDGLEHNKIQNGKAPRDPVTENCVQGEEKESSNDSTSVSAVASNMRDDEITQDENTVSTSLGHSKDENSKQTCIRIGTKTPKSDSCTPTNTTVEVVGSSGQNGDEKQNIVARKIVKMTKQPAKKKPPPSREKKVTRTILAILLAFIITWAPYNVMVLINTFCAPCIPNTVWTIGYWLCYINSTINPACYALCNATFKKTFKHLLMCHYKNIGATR
measurement_name: AC50

Reference set (5 entries):
- compound: "CCCCCCOC(=O)CCC(=O)CN [HEXAMINOLEVULINATE]"
  measurement_name: "AC50"
  test_result: "> 30 µM"
- compound: "CNCCC=C1c2ccccc2CCc2ccccc21"
  measurement_name: "AC50"
  test_result: "> 30 µM"
- compound: "CC[C@@H](CO)NC(=O)[C@@H]1C=C2c3cccc4[nH]cc(c34)C[C@H]2N(C)C1"
  measurement_name: "AC50"
  test_result: "> 30 µM"
- compound: "NC(=O)CCC/N=C(\\c1ccc(Cl)cc1)c1cc(F)ccc1O [PROGABIDE]"
  measurement_name: "AC50"
  test_result: "> 10 µM"
- compound: "CNCC[C@H](Oc1cccc2ccccc12)c1cccs1"
  measurement_name: "AC50"
  test_result: "> 10 µM"

Answer for every listed entry: what is its AC50? The entries follow.
1. COC(=O)N[C@@H](C)CNc1nccc(-c2cn(C(C)C)nc2-c2cc(Cl)cc(NS(C)(=O)=O)c2F)n1
2. C=C(C)[C@@H]1CCC(C)=C[C@H]1c1c(O)cc(CCCCC)cc1O
3. CN(C)c1cc(CNCC(C)(C)C)c(O)c2c1C[C@H]1C[C@H]3[C@H](N(C)C)C(O)=C(C(N)=O)C(=O)[C@@]3(O)C(O)=C1C2=O

Given back:
["> 30 µM", "8 µM", "> 30 µM"]

Answer for every listed entry: what is its AC50? The entries follow.
1. CCCC(C)(COC(N)=O)COC(=O)NC(C)C (stereo not drawn)
2. CCN(CC)CC(=O)Oc1ccc(NC(C)=O)cc1
3. N#C[C@@H]1CCCN1C(=O)CNC12CC3CC(CC(O)(C3)C1)C2
4. O=C(CCCN1CCC(n2c(O)nc3ccccc32)CC1)c1ccc(F)cc1
5. COc1ccnc(C[S+]([O-])c2nc3ccc(OC(F)F)cc3[nH]2)c1OC (stereo not drawn)

Given back:
["> 10 µM", "> 30 µM", "> 30 µM", "> 30 µM", "> 10 µM"]

Answer for every listed entry: what is its AC50? The entries follow.
1. CC(=O)Oc1ccccc1C(=O)Nc1ncc([N+](=O)[O-])s1 [NITAZOXANIDE]
2. Nc1nc(O)c2ncn(COC(CO)CO)c2n1
3. CCn1cc(C(=O)O)c(=O)c2cc(F)c(N3CCNCC3)nc21
4. NS(=O)(=O)c1cc2c(cc1C(F)(F)F)NC(Cc1ccccc1)NS2(=O)=O (stereo not drawn) [BENDROFLUMETHIAZIDE]

Given back:
1: 1.4 µM; 2: > 30 µM; 3: > 10 µM; 4: > 10 µM

Asked: Any idea what its AC50 is? The compound is `CC(C)(C)NC[C@H](O)COc1nsnc1N1CCOCC1`
Given back: > 30 µM

Where do these numbers come from? They come from ChEMBL document CHEMBL5291721.
